- test: Pharmacokinetics of ginsenosides in plasma after a single oral dose of 6 g FRG or RG, crossover clinical trial
- Format: in vivo, human
- conditionInfo: human, in vivo, po, after 6 g RG oral single dose, median (min, max); read-out: Tmax
reportedEndpoint: Tmax (h)
State just the number; it will be interpreted in h.

stdin: I'd like to know its Tmax. The molecule in question is CC(C)=CCC[C@](C)(O)[C@H]1CC[C@]2(C)[C@@H]1[C@H](O)C[C@@H]1[C@@]3(C)CC[C@H](O[C@@H]4O[C@H](CO)[C@@H](O)[C@H](O)[C@H]4O)C(C)(C)[C@@H]3CC[C@]12C
stdout: 3

The origin of these recorded values is paper PMC9784495.
